Each record here notes measured combination Emax.
# System: UACC-812 (Breast Carcinoma)
# method: combination Emax (second highest fraction inhibited in the dose matrix, 72 h); higher = more inhibition; extreme values may be limits of the assay
Give the figure by itself; no unit, no explanation.

The following molecules have reported results that may help.
- molecule: "COc1cccc2c1C(=O)c1c(O)c3c(c(O)c1C2=O)C[C@@](O)(C(=O)CO)C[C@@H]3O[C@H]1C[C@H](N)[C@H](O)[C@H](C)O1 [Doxorubicin] + Cc1cc2ncnn2cc1Nc1ncc2c(n1)n(C1CCOCC1)c(=O)n2C [AZD7648] (first compound max 1 µM, 7x7, partner max 10 µM)"
  combination Emax: 0.296
- molecule: "O=C(c1cc(Cc2n[nH]c(=O)c3ccccc23)ccc1F)N1CCN(C(=O)C2CC2)CC1 [Olaparib] + COc1nnc2ccc(N3CCC(c4ccc(OCCN5CCN(C)C(=O)[C@H]5C)cc4)CC3)nn12 [AZD5153] (first compound max 10 µM, 7x7, partner max 1 µM)"
  combination Emax: 0.376

# next molecule below
IN: Using the record for CC(=O)Nc1cccc(-n2c(=O)n(C3CC3)c(=O)c3c(Nc4ccc(I)cc4F)n(C)c(=O)c(C)c32)c1 [Trametinib] + Cc1nc(-c2cn3c(n2)-c2ccc(-c4cnn(C(C)(C)C(N)=O)c4)cc2OCC3)n(C(C)C)n1 [Taselisib] (first compound max 1 µM, 7x7, partner max 10 µM) , state its measured combination Emax.
OUT: 0.461

###

Entries and their Bliss excess
# System: EB2 (Burkitt's Lymphoma);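 further: after 72 h of two-drug dosing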
# method: Bliss excess, mean over the matrix (fraction); higher = more synergy
Give your answer as a number; write no unit.

Below, each entry is followed by its recorded Bliss excess result.
- compound: "CN(CCO)CC[C@H](CSc1ccccc1)Nc1ccc(S(=O)(=O)NC(=O)c2ccc(N3CCC([C@@H](O)c4ccccc4-c4ccc(Cl)cc4)CC3)cc2)cc1S(=O)(=O)C(F)(F)F [AZD4320] + Cc1cc2ncnn2cc1Nc1ncc2c(n1)n(C1CCOCC1)c(=O)n2C [AZD7648] (first compound max 1 µM, 7x7, partner max 10 µM)"
  target-under-test: "EB2 (Burkitt's Lymphoma)"
  result: 0.007
- compound: "CC(=O)c1c(C)c2cnc(Nc3ccc(N4CCNCC4)cn3)nc2n(C2CCCC2)c1=O [Palbociclib] + Cn1cnc2c(F)c(Nc3ccc(Br)cc3Cl)c(C(=O)NOCCO)cc21 [Selumetinib] (first compound max 10 µM, 7x7, partner max 10 µM)"
  target-under-test: "EB2 (Burkitt's Lymphoma)"
  result: -0.018

Then there is this compound:
IN: Report Bliss excess from EB2 (Burkitt's Lymphoma) testing of C=CCn1c(=O)c2cnc(Nc3ccc(N4CCN(C)CC4)cc3)nc2n1-c1cccc(C(C)(C)O)n1 [AZD1775] + C[C@@H]1COCCN1C2=NC(=NC(=C2)C3(CC3)[S@](=N)(=O)C)C4=C5C=CNC5=NC=C4 [AZD6738] (first compound max 1 µM, partner max 10 µM)
OUT: 0.0589

###

Each item that follows carries a reported combination Emax.
# Test system: A2780 (Ovarian Carcinoma)
# method: combination Emax (second highest fraction inhibited in the dose matrix, 72 h); higher = more inhibition; extreme values may be limits of the assay
// no unit string in output, number only

- compound: "CC1(C)CCC(CN2CCN(c3ccc(C(=O)NS(=O)(=O)c4ccc(NCC5CCOCC5)c([N+](=O)[O-])c4)c(Oc4cnc5[nH]ccc5c4)c3)CC2)=C(c2ccc(Cl)cc2)C1 [Venetoclax] + Cn1cnc2c(F)c(Nc3ccc(Br)cc3Cl)c(C(=O)NOCCO)cc21 [Selumetinib] (first compound max 1 µM, 7x7, partner max 3 µM)"
  target-under-test: "A2780 (Ovarian Carcinoma)"
  combination Emax: 0.377

Consider the additional compound presented here.
IN: Annotate the compound O=C(c1cc(Cc2n[nH]c(=O)c3ccccc23)ccc1F)N1CCN(C(=O)C2CC2)CC1 [Olaparib] + COc1nnc2ccc(N3CCC(c4ccc(OCCN5CCN(C)C(=O)[C@H]5C)cc4)CC3)nn12 [AZD5153] (first compound max 10 µM, 7x7, partner max 1 µM) with its measured combination Emax.
OUT: 0.774
